Test system: human PKA catalytic subunit C-alpha mRNA
Assay: Inhibition of PKA catalytic subunit C-alpha mRNA levels in oligonucleotide-treated cells, quantitative real-time PCR
Assay type: cell-based
Set-up: concentration or dose not given beside the values
Conditions: Table 2, chimeric phosphorothioate 2'-MOE gapmers, averaged from two experiments
% Inhibition of PKA catalytic subunit C-alpha mRNA levels reference
Endpoint: % Inhibition of PKA catalytic subunit C-alpha mRNA levels (%)

Substance	Value Unit	Readout Number
102680 (antisense TAGATGAGATCCAGCGAGTG; chemistry not given here) [compound 102680]	%	33
102664 (antisense CTTCTGTTTGTCGAGGATCT; chemistry not given here) [compound 102664]	%	76
102736 (antisense CCTTGAACCCCGGGCCGTGG; chemistry not given here) [compound 102736]	%	65
102731 (antisense TGCAGGGATGCCCTCCCCAC; chemistry not given here) [compound 102731]	%	54
102711 (antisense TTGGCGCTTCGTTCATTTGC; chemistry not given here) [compound 102711]	%	60
102750 (antisense TAGTTTTCAAATATGTTTAC; chemistry not given here) [compound 102750]	%	66
102614 (antisense CCCATCGCGGCGGCGGCGGC; chemistry not given here) [compound 102614]	%	77
102604 (antisense TCGCGGCGGCGGCGGCCGGG; chemistry not given here) [compound 102604]	%	70
102738 (antisense CAGGCAGCCCCTCCCCAGCA; chemistry not given here) [compound 102738]	%	31
102599 (antisense GCGGCGGGTGCTGGCTGCGG; chemistry not given here) [compound 102599]	%	77
102707 (antisense GGAGCAGCTGGTGTTTCTGT; chemistry not given here) [compound 102707]	%	73
102672 (antisense GTTGTCCTTGAAGGAGAACT; chemistry not given here) [compound 102672]	%	28
102744 (antisense TGGCTCCCCAGCGGCTCCCC; chemistry not given here) [compound 102744]	%	77
102594 (antisense TGGCTGCGGCCGGCGGCCCG; chemistry not given here) [compound 102594]	%	55

###

Test system: human PKA catalytic subunit C-alpha mRNA
Test: Inhibition of PKA catalytic subunit C-alpha mRNA levels in oligonucleotide-treated cells, quantitative real-time PCR
Assay type: cell-based
Design: concentration or dose not given beside the values
Conditions: Table 2, chimeric phosphorothioate 2'-MOE gapmers, averaged from two experiments
Description: when cells reached 80% confluency, they were treated with oligonucleotide. For cells grown in 96-well plates, wells were washed once with 200 μL. […] Quantitat:ion of PKA catalytic subunit C-alpha mRNA levels was determined by real-time quantitative PCR using the ABI PRISM™ […] Sequence Detection System (PE-Applied Biosystems, Foster City, Calif.) according to manufacturer's instructions. […]
Endpoint: % Inhibition of PKA catalytic subunit C-alpha mRNA levels

Substance	Result
102700 (antisense CTTCCTCATAGTCGTCAAAG; chemistry not given here) [compound 102700]	44%
102747 (antisense CACACAGGTTGAATCGCCCC; chemistry not given here) [compound 102747]	81%
102633 (antisense CGGCGTTGCCCATCGCGGCG; chemistry not given here) [compound 102633]	81%
102653 (antisense ATTCTTTCACGCTCTCCTGC; chemistry not given here) [compound 102653]	55%
102676 (antisense GAACATCTCCCCGCCGGGCA; chemistry not given here) [compound 102676]	92%
102720 (antisense GCTTCTCTTTAAAATGGATT; chemistry not given here) [compound 102720]	56%
102696 (antisense AAACCACTTGTGGTTCTTGA; chemistry not given here) [compound 102696]	71%
